All figures here come from paper PMC6973011.

# target-or-system: STAT5b Arg566Trp/Met644Lys (Homo sapiens, UniProt P51692, M644K/R566W)
# protocol-notes: Fluorescence polarization assay, double mutant STAT5b Arg566Trp/Met644Lys
# measurement-context: FP assay
recorded-endpoint: IC50 (µM)

INSERT INTO measurements (compound, u, numeric_readout) VALUES
  ('COc1cc(-c2cc(OP(=O)(O)O)cc(-c3cc(OC)c(OC)c(OC)c3)c2)cc(OC)c1OC [Compound 20]', 'µM', 128);

----------
# target-or-system: STAT5b Arg566Trp/Met644Lys (Homo sapiens, UniProt P51692, M644K/R566W)
# Sequence (P51692 1-787 R566W/M644K): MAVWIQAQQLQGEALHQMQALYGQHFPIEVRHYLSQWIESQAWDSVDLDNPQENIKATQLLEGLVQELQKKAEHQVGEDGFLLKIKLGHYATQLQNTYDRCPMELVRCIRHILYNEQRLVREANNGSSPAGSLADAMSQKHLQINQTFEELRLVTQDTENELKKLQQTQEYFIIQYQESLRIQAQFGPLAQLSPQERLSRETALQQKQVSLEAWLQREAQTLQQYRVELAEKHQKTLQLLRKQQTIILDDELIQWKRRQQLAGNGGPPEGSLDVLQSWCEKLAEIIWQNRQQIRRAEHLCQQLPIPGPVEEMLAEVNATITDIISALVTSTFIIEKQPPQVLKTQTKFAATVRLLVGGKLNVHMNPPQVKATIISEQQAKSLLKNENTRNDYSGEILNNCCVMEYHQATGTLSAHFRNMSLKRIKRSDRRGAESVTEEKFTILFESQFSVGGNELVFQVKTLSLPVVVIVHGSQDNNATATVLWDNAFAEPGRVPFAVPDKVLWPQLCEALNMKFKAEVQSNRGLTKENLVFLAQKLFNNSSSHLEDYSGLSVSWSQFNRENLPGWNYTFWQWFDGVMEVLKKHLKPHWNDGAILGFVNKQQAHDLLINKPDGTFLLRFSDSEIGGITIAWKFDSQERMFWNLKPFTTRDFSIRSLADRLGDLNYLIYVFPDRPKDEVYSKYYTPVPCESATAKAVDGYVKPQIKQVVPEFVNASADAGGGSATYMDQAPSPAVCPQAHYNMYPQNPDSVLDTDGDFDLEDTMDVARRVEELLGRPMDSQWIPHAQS
# protocol-notes: Fluorescence polarization assay, double mutant STAT5b Arg566Trp/Met644Lys
# measurement-context: FP assay
recorded-endpoint: Ki (µM)

INSERT INTO assay_data (smiles_entry, numeric_readout) VALUES
  ('COc1cc(-c2cc(OP(=O)(O)O)cc(-c3cc(OC)c(OC)c(OC)c3)c2)cc(OC)c1OC', 63.1);

----------
pKi values, listed per item
# target-or-system: STAT3 (Homo sapiens, UniProt P40763)
# Sequence (P40763 whole entry, species assumed, the tested form may be a part): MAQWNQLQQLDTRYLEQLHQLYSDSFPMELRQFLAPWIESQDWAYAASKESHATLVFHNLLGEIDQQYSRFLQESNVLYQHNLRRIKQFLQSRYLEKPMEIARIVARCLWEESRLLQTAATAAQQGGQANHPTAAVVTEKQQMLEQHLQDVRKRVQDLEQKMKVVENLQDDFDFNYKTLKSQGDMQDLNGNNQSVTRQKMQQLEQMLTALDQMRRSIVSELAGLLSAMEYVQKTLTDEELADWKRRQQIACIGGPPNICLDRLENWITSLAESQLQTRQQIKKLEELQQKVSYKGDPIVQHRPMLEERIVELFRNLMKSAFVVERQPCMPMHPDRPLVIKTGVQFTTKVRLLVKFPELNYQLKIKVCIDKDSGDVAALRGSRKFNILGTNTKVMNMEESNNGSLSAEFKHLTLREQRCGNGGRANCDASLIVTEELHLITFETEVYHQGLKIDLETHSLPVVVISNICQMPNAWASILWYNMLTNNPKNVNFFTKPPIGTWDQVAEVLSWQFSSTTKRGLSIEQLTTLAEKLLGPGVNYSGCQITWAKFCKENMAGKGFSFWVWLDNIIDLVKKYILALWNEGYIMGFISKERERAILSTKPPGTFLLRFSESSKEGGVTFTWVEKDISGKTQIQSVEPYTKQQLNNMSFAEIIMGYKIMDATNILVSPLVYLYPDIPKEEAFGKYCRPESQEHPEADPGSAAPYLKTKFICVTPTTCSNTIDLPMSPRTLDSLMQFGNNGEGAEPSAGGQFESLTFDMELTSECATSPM
# protocol-notes: Fluorescence polarization competitive binding assay, STAT3 SH2 domain
pKi: −log10 of the molar value.
recorded-endpoint: pKi

INSERT INTO assay_data (compound, numeric_readout) VALUES
  ('COc1ccc(-c2cc(OP(=O)(O)O)cc(-c3ccc(Cl)cc3)c2)cc1 [Compound 1]', 4.23),
  ('O=P(O)(O)Oc1cc(-c2ccc3c(c2)OCCO3)cc(-c2ccc3c(c2)OCCO3)c1 [Compound 19]', 4.29),
  ('O=P(O)(O)Oc1cc(-c2ccc(Cl)cc2)cc(-c2ccc(Cl)cc2)c1 [Compound 10]', 4.72),
  ('COc1ccc(-c2cc(OP(=O)(O)O)cc(-c3ccc(OC)cc3)c2)cc1 [Compound 12]', 4.11),
  ('O=P(O)(O)Oc1cc(-c2ccc3c(c2)OCO3)cc(-c2ccc3c(c2)OCO3)c1 [Compound 18]', 4.20),
  ('O=P(O)(O)Oc1cc(-c2cc(F)c(F)c(F)c2)cc(-c2cc(F)c(F)c(F)c2)c1 [Compound 22]', 4.30);
